TEST METHOD NOTES: in vivo
Parameters: species or system Sprague-Dawley rat
MEASUREMENT CONTEXT: male, Sprague-Dawley, rat, sc
Recorded Tmax values for a group of compounds are listed next.
Field format: number, assumed h, no unit text.

COMPOUND	READOUT TYPE	RESULT UNITS	MEASURED RESULT
CCCCCCCC/C=C\CCCCCCCC(=O)OC[C@H](NC(=O)[C@H](Cc1c[nH]c2ccccc12)NC(=O)[C@H](Cc1c[nH]cn1)NC(=O)[C@@H]1CCC(=O)N1)C(=O)N[C@@H](Cc1ccc(O)cc1)C(=O)N[C@H](CC(C)C)C(=O)N[C@@H](CC(C)C)C(=O)N[C@@H](CCCNC(=N)N)C(=O)N1CCC[C@H]1C(=O)NCC [LOC]	Tmax	h	5

// Tmax lookup, key: CCNC(=O)[C@@H]1CCCN1C(=O)[C@H](CCCNC(=N)N)NC(=O)[C@H](CC(C)C)NC(=O)[C@@H](CC(C)C)NC(=O)[C@H](Cc1ccc(O)cc1)NC(=O)[C@H](CO)NC(=O)[C@H](Cc1c[nH]c2ccccc12)NC(=O)[C@H](Cc1c[nH]cn1)NC(=O)[C@@H]1CCC(=O)N1 [Leuprolide, reference compound] 0.25
